src = patent US20040006236A1

Give IC50 for every item shown.
- system-under-test: LFA-1 binding to immobilized ICAM-1 (Homo sapiens, UniProt P05107+P20701)
- Construct: made in house; host or cells: transfected 293 cells (LFA-1)
- Sequence (P20701 26-1170): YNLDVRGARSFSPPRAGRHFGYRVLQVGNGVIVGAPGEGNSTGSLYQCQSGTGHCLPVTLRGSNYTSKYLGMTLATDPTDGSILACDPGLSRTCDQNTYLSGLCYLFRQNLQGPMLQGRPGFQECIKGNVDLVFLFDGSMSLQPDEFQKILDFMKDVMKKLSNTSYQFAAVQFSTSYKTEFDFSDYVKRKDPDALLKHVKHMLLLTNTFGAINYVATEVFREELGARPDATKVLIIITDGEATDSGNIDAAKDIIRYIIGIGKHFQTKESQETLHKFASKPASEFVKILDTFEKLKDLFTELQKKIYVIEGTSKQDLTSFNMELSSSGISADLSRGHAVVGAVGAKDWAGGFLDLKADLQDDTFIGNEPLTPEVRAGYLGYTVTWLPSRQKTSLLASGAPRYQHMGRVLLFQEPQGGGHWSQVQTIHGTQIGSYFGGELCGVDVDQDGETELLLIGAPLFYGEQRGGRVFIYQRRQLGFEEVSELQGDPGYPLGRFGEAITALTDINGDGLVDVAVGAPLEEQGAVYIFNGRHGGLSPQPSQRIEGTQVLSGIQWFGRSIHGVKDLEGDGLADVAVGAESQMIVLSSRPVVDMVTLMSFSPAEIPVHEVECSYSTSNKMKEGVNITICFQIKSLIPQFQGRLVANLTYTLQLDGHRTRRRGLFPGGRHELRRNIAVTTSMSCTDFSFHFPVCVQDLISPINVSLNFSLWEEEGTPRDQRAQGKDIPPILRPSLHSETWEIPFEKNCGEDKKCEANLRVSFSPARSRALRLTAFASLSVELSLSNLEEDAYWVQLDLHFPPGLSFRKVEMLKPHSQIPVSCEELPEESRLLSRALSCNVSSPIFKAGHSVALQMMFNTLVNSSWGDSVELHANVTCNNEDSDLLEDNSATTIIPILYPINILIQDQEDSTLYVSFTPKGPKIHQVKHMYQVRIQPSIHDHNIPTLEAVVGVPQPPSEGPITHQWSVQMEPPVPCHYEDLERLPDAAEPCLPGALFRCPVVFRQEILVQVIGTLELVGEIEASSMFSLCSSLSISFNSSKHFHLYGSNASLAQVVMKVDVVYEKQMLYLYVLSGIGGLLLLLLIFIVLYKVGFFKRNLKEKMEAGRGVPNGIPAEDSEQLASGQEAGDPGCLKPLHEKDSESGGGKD
- Sequence (P05107 23-769): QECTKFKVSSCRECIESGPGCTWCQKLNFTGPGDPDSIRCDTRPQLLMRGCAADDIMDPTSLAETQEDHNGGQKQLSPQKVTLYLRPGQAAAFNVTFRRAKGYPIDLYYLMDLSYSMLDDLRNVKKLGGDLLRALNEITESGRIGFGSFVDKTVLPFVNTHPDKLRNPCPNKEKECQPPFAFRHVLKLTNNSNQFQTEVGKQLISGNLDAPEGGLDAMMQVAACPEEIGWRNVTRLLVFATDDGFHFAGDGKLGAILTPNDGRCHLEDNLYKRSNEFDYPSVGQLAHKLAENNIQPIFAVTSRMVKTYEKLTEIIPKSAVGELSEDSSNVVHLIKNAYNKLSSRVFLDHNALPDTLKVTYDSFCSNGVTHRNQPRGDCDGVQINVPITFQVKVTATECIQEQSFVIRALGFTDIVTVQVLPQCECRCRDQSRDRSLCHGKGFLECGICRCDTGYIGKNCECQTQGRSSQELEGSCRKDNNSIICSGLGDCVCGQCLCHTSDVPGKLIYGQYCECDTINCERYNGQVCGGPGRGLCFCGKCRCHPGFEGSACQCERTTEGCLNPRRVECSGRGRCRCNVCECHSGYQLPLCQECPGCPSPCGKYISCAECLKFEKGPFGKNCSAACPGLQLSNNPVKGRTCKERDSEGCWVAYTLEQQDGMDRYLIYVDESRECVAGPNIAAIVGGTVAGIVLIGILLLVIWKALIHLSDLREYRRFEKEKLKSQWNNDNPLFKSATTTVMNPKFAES
- test-name: LFA-1/ICAM-1 protein-protein assay (solid-phase ELISA)
- condition: read-out: LFA-1/ICAM-1 Protein-Protein Assay IC50
Answer shape: numeric part, then the unit.

O=C(NCc1cccc(O)c1)c1ccc(C(=O)N[C@@H](CNC(=O)c2ccc3[nH]cnc3c2)C(=O)O)c(Cl)c1: 1.2 nM
CC(C)CC(=O)NC[C@H](NC(=O)c1ccc(C(=O)NCc2cccc(O)c2)cc1Cl)C(=O)O: 2 nM
O=C(NCc1cccc2[nH]ccc12)c1ccc(C(=O)N[C@@H](CNC(=O)c2cccs2)C(=O)O)c(Br)c1: 2.7 nM
O=C(CCc1cccc(O)c1)c1ccc(C(=O)N[C@@H](CNC(=O)c2cccs2)C(=O)O)c(Cl)c1: 1.4 nM
O=C(NCc1cccc(O)c1)c1ccc(C(=O)N[C@@H](CNC(=O)c2ccc(Br)o2)C(=O)O)c(Cl)c1: 2.5 nM

Your task in this section: give IC50 for each listed record.
1. Cc1cc(C(=O)N[C@H](C)c2cccc3ccccc23)cc(C)c1C(=O)N[C@@H](CNC(=O)c1cccs1)C(=O)O
2. O=C(NCc1cccc(O)c1)c1cc(Cl)c(C(=O)N[C@@H](CNC(=O)c2ccsc2)C(=O)O)c(Cl)c1
3. Cc1cc(C(=O)NCc2cccc(O)c2)cc(C)c1C(=O)N[C@@H](CNC(=O)c1cc(F)cc(F)c1)C(=O)O
4. O=C(NC[C@H](NC(=O)c1c(Cl)cccc1Cl)C(=O)O)c1ccc(Br)s1
5. O=C(NC[C@H](NC(=O)c1c(Cl)cccc1Cl)C(=O)O)c1ccc2[nH]ccc2c1
6. Nc1cccc(C(=O)NCc2ccc(C(=O)N[C@@H](CNC(=O)c3ccccc3)C(=O)O)c(Cl)c2)c1

1: 3.5 nM; 2: 2.5 nM; 3: 3.7 nM; 4: 6.4 nM; 5: 31 nM; 6: 41 nM

Your task in this section: give IC50 for each listed record.
1. O=C(NCc1cccc(O)c1)c1ccc(C(=O)N[C@@H](CNC(=O)c2nc3ccccc3nc2O)C(=O)O)c(Cl)c1
2. O=C(NCc1cccc(O)c1)c1ccc(C(=O)N[C@@H](CNC(=O)c2cccnc2Cl)C(=O)O)c(Cl)c1
3. O=C(N[C@@H](CNC(=O)C1CC1)C(=O)O)c1c(Cl)cccc1Cl
4. O=C(N[C@@H](CNC(=O)C1CCC1)C(=O)O)c1c(Cl)cccc1Cl

1.6 nM
3 nM
36 nM
36 nM
